target: human cannabinoid receptor 1 (huCB1), full length, expressed on cells (human, UniProt P21554 1-472); experiment: cell-based or functional assay
Sequence (P21554 whole entry): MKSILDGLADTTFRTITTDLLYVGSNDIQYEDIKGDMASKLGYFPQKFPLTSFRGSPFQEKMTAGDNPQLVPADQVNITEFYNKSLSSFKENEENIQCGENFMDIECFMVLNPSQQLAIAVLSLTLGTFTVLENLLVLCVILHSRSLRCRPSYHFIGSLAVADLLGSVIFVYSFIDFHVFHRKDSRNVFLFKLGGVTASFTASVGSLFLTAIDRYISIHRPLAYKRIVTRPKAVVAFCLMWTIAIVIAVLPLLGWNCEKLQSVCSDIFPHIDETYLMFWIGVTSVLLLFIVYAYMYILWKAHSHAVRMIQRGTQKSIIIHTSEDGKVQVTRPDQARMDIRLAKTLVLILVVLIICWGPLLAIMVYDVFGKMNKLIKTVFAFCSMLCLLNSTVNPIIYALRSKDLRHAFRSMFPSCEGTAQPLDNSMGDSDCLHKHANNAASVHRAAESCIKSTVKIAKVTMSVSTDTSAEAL
recorded.metric: n = 2 IC50, -fold vs Rimo (fold vs Rimonabant)
Write down the numeric answer in fold vs Rimonabant and omit the unit.

1. LIBC528141-1 (antibody, V domains shown) VH: QVQLQESGPGLVKPSQTLSLTCTVSGGSIRRGGDYWSWIRQHPGKGLEWIGHVYQTGSTKYNPRFKGRATISVNTYKNQFSLKLSSVTAADTAVYYCARDYDILTGYSYYYYGMDVWGQGTTVTVSS VL: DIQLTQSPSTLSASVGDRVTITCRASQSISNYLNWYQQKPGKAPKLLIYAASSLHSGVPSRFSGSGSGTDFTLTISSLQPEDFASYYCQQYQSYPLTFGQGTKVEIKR
1.03
2. LIBC528169-1 (antibody, V domains shown) VH: QVQLQESGPGLVKPSQTLSLTCTVSGGSIRRGGDYWSWIRQHPGKGLEWIGHIYQSGSTKYNPSFEDRATISVNTYKNQFSLKLSSVTAADTAVYYCARDYDILTGYSYYYYGMDVWGQGTTVTVSS VL: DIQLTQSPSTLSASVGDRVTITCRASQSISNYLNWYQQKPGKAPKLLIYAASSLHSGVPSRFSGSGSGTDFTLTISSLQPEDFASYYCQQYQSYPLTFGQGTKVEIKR
1.85

Now take the following binder into account.
What value of n = 2 IC50, -fold vs Rimo has been reported for the following binder? LIBC527814-1 (antibody, V domains shown, Expressed as IgG1 SEFL2 mAb) VH: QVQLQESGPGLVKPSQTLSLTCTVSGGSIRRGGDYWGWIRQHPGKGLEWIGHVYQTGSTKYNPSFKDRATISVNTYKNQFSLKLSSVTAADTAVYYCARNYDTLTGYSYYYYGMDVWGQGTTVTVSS VL: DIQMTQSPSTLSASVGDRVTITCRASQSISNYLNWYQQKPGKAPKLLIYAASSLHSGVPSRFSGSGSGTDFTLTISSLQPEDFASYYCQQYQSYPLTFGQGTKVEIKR 0.68

Data origin: patent US20250277029A1
